- TEST_SUMMARY: basal MM1S mitochondrial membrane potential changes, profiling panel, cell-based, JC-1 fluorescence, 24 h, 100 nL compound (AID 1170); further: test concentration not given here
- RUN_CONDITIONS: higher = more signal
ASSAY_ENDPOINT: z-score

C[C@H]1NC(=O)[C@@]23C(=O)N[C@@H](Cc4ccccc4)C2[C@H](C)[C@@]2(C)O[C@H]2C3/C=C/C/C=C\CNC(=O)[C@@H]2CCCN2C1=O (some centres not stated) ... -0.507
C=CCN1C(=O)[C@@]2(CC=C)N=C(c3ccc(OCCCO)cc3)O[C@H]2c2ccccc21 ... -2.1
C=CCC(OC(C)=O)[C@@H]1[C@@H](N(Cc2ccc(-c3cccc(C(F)(F)F)c3)o2)C(=O)c2ccc(C)cc2)c2cc(OCCCO)ccc2N1C(=O)Cc1ccc2ccccc2c1 (some centres not stated) ... -0.554
CN1C(=O)C2C=CC(C(O)c3ccc([N+](=O)[O-])cc3)N(N3CCCCC3)C2C1=O (configuration not stated) ... 0.134
CCOC(=O)C[C@H]1[C@H](OC(=O)c2ccc(C(=O)c3ccccc3)cc2)[C@@H](NC(=O)c2ccc3ccccc3n2)c2cc(OCCCO)ccc2N1C(=O)c1ccccc1 ... -0.318
C=C(CC1([C@@H](NP(=O)(c2ccccc2)c2ccccc2)[C@H]2C[C@@H]2CCCC)CC1)c1ccccc1 ... -1.92
O=C(OCc1ccccc1)C1=CCC2c3[nH]c4ccccc4c3C(=O)C1N2S(=O)(=O)c1ccccc1[N+](=O)[O-] (configuration not stated) ... -3.28

These entries and their values trace back to PubChem BioAssay.
